Target: Tubulin (Homo sapiens) (UniProt P68371+Q9H4B7+P0DPH7+P68366+Q13509+Q71U36+P04350+Q3ZCM7+P07437+P68363+Q9BQE3+Q6PEY2+Q13885+Q9BVA1+Q9BUF5)
Experiment: Binding affinity to microtubules, activity expressed as ID50 of compound/ID50 of paclitaxel
Format: protein-complex assay
Recorded measurements of ID50 ratio, one per entry
Give the value as a plain number.

// known answers, use as guide
[
  {
    "Compound String": "CC(=O)O[C@H]1C(=O)[C@@]2(C)[C@H]([C@H](OC(=O)c3ccccc3)[C@]3(O)C[C@H](OC(=O)C[C@H](NC(=O)c4ccccc4)c4ccccc4)C(C)=C1C3(C)C)[C@]1(OC(C)=O)CO[C@@H]1C[C@@H]2O",
    "ID50 ratio": 21.2
  },
  {
    "Compound String": "CC(=O)O[C@H]1C(=O)[C@@]2(C)[C@H]([C@H](OC(=O)c3ccccc3)[C@]3(O)C[C@H](OC(=O)[C@H](O)[C@@H](NC(=O)c4ccccc4)c4ccoc4)C(C)=C1C3(C)C)[C@]1(OC(C)=O)CO[C@@H]1C[C@@H]2O",
    "ID50 ratio": 0.9
  }
]

Next:
// query I have this molecule here, CC(=O)O[C@H]1C(=O)[C@@]2(C)[C@H]([C@H](OC(=O)c3ccccc3)[C@]3(O)C[C@H](OC(=O)[C@H](O)[C@@H](N)c4ccccc4)C(C)=C1C3(C)C)[C@]1(OC(C)=O)CO[C@@H]1C[C@@H]2O , and I need its recorded ID50 ratio.
// result 44

----------
Molecular target: Tubulin (Homo sapiens) (UniProt P68371+Q9H4B7+P0DPH7+P68366+Q13509+Q71U36+P04350+Q3ZCM7+P07437+P68363+Q9BQE3+Q6PEY2+Q13885+Q9BVA1+Q9BUF5)
Assay: Binding affinity to microtubules, activity expressed as ID50 of compound/ID50 of paclitaxel
Type: protein-complex assay
Experimental Endpoint: ID50 ratio

[
  {
    "Compound String": "CC(=O)O[C@H]1C(=O)[C@@]2(C)[C@H]([C@H](OC(=O)c3ccccc3)[C@]3(O)C[C@H](OC(=O)[C@@H](O)[C@H](NC(=O)OC(C)(C)C)c4ccccc4)C(C)=C1C3(C)C)[C@]1(OC(C)=O)CO[C@@H]1C[C@@H]2O",
    "ID50 ratio": 30
  }
]

// query I have this compound here, CC(=O)O[C@@]12CO[C@@H]1C[C@H](OC(=O)[C@H](O)[C@@H](O)[C@H](O)CO)[C@@]1(C)C(=O)[C@H](O)C3=C(C)[C@@H](OC(=O)[C@H](O)[C@@H](NC(=O)c4ccccc4)c4ccccc4)C[C@@](O)([C@@H](OC(=O)c4ccccc4)[C@H]21)C3(C)C , and I need its recorded ID50 ratio.
// result 0.6

----------
Biological target: Tubulin (Homo sapiens) (UniProt P68371+Q9H4B7+P0DPH7+P68366+Q13509+Q71U36+P04350+Q3ZCM7+P07437+P68363+Q9BQE3+Q6PEY2+Q13885+Q9BVA1+Q9BUF5)
Test: Binding affinity to microtubules, activity expressed as ID50 of compound/ID50 of paclitaxel
Type: protein-complex assay
Friendly reminder: ID50 ratio below 0.8 is yes (1), at or above is no (0).

[
  {
    "Compound String": "CC(=O)O[C@H]1C(=O)[C@@]2(C)[C@H]([C@H](OC(=O)c3ccccc3)[C@]3(O)C[C@H](OC(=O)[C@H](O)[C@@H](NC(=O)c4ccccc4)c4cccnc4)C(C)=C1C3(C)C)[C@]1(OC(C)=O)CO[C@@H]1C[C@@H]2O",
    "Class Name": "yes (1)"
  }
]

// query Answer whether the compound CC(=O)O[C@H]1C(=O)[C@]2(C)[C@@H](OC(=O)c3c(F)c(F)c(N=[N+]=[N-])c(F)c3F)C[C@H]3OC[C@@]3(OC(C)=O)[C@H]2[C@H](OC(=O)c2ccccc2)[C@]2(O)C[C@H](OC(=O)[C@H](O)[C@@H](NC(=O)c3ccccc3)c3ccccc3)C(C)=C1C2(C)C has ID50 ratio strictly less than 0.8
// result no (0)

// query Now this one: CC(=O)O[C@H]1C(=O)[C@@]2(C)[C@H]([C@H](OC(=O)c3ccccc3)[C@]3(O)C[C@H](OC(=O)[C@H](O)[C@@H](NC(=O)c4ccccc4)c4cccc(Cl)c4)C(C)=C1C3(C)C)[C@]1(OC(C)=O)CO[C@@H]1C[C@@H]2O
// result no (0)

// query Now this one: CC(=O)O[C@@]12CO[C@@H]1C[C@H](O)[C@@]1(C)C(=O)[C@H](O)C3=C(C)[C@@H](OC(=O)[C@@H](O)[C@@H](N)c4ccccc4)C[C@@](O)([C@@H](OC(=O)c4ccccc4)[C@H]21)C3(C)C
// result no (0)

// query Now this one: CC(=O)O[C@H]1C(=O)[C@@]2(C)[C@H]([C@H](OC(=O)c3ccccc3)[C@]3(O)C[C@H](OC(=O)[C@H](O)Cc4ccccc4)C(C)=C1C3(C)C)[C@]1(OC(C)=O)CO[C@@H]1C[C@@H]2O
// result no (0)

// query Now this one: CC(=O)O[C@@]12CO[C@@H]1C[C@H](OC(=O)CN)[C@@]1(C)C(=O)[C@H](OC(=O)CN)C3=C(C)[C@@H](OC(=O)[C@H](O)[C@@H](NC(=O)OC(C)(C)C)c4ccccc4)C[C@@](O)([C@@H](OC(=O)c4ccccc4)[C@H]21)C3(C)C
// result no (0)

// query Now this one: CC(=O)O[C@@]12CO[C@@H]1C[C@H](O)[C@@]1(C)C(=O)[C@H](O)C3=C(C)[C@@H](OC(=O)[C@H](O)[C@H](N)c4ccccc4)C[C@@](O)([C@@H](OC(=O)c4ccccc4)[C@H]21)C3(C)C
// result no (0)

// query Now this one: CC(=O)O[C@H]1C(=O)[C@@]2(C)[C@H]([C@H](OC(=O)c3ccccc3)[C@]3(O)C[C@H](OC(=O)[C@H](O)[C@@H](NC(=O)OCc4ccccc4)c4ccccc4)C(C)=C1C3(C)C)[C@]1(OC(C)=O)CO[C@@H]1C[C@@H]2O
// result no (0)

// query Now this one: C/C=C(\C)C(=O)N[C@@H](c1ccccc1)[C@@H](O)C(=O)O[C@H]1C[C@@]2(O)[C@@H](OC(=O)c3ccccc3)[C@@H]3[C@]4(OC(C)=O)CO[C@@H]4C[C@H](OC(=O)[C@H](O)[C@@H](O)[C@H](O)CO)[C@@]3(C)C(=O)[C@H](OC(C)=O)C(=C1C)C2(C)C
// result yes (1)

----------
Biological target: Tubulin (Homo sapiens) (UniProt P68371+Q9H4B7+P0DPH7+P68366+Q13509+Q71U36+P04350+Q3ZCM7+P07437+P68363+Q9BQE3+Q6PEY2+Q13885+Q9BVA1+Q9BUF5)
Experiment: Binding affinity to microtubules, activity expressed as log 1/ID50 of compound/ID50 of paclitaxel
Format: protein-complex assay
Would you mind sorting the entries by Log 1/ratio according to these classes? lower band (below -1), central band (-1 to below -0.1), upper band (-0.1 or more)

Study these solved cases before continuing.
[
  {
    "Compound String": "CC(=O)O[C@H]1C(=O)[C@@]2(C)[C@H]([C@H](OC(=O)c3ccccc3)[C@]3(O)C[C@H](OC(=O)[C@H](O)[C@@H](NC(=O)c4ccccc4)c4ccc(O)cc4)C(C)=C1C3(C)C)[C@]1(OC(C)=O)CO[C@@H]1C[C@@H]2O",
    "Class Name": "upper band"
  },
  {
    "Compound String": "CC(=O)O[C@@]12CO[C@@H]1C[C@H](O)[C@@]1(C)C(=O)[C@H](O)C3=C(C)[C@@H](OC(=O)CCc4ccccc4)C[C@@](O)([C@@H](OC(=O)c4ccccc4)[C@H]21)C3(C)C",
    "Class Name": "lower band"
  },
  {
    "Compound String": "CC(=O)O[C@H]1C(=O)[C@@]2(C)[C@H]([C@H](OC(=O)c3ccccc3)[C@]3(O)C[C@H](OC(=O)[C@H](O)[C@@H](N)c4ccccc4)C(C)=C1C3(C)C)[C@]1(OC(C)=O)CO[C@@H]1C[C@@H]2O",
    "Class Name": "lower band"
  }
]

// query Please report the category associated with CC(=O)O[C@H]1C(=O)[C@@]2(C)[C@H]([C@H](OC(=O)c3ccccc3)[C@]3(O)C[C@H](OC(=O)[C@H](O)[C@@H](NC(=O)c4ccc(C(F)(F)F)cc4)c4ccccc4)C(C)=C1C3(C)C)[C@]1(OC(C)=O)CO[C@@H]1C[C@@H]2O , nothing else.
// result central band

// query Now this one: CC(=O)O[C@@]12CO[C@@H]1C[C@H](OC(=O)[C@H](O)[C@@H](O)[C@H](O)CO)[C@@]1(C)C(=O)[C@H](O)C3=C(C)[C@@H](OC(=O)[C@H](O)[C@@H](NC(=O)c4ccccc4)c4ccccc4)C[C@@](O)([C@@H](OC(=O)c4ccccc4)[C@H]21)C3(C)C
// result upper band
